// provenance: patent US8530504B2

Target: human CRFR1 (Homo sapiens (Human), UniProt P34998);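 further: nonspecific binding was determined with a 4,000-fold excess of unlabelled sauvagine and subtracted from every reading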
Sequence (P34998 24-415): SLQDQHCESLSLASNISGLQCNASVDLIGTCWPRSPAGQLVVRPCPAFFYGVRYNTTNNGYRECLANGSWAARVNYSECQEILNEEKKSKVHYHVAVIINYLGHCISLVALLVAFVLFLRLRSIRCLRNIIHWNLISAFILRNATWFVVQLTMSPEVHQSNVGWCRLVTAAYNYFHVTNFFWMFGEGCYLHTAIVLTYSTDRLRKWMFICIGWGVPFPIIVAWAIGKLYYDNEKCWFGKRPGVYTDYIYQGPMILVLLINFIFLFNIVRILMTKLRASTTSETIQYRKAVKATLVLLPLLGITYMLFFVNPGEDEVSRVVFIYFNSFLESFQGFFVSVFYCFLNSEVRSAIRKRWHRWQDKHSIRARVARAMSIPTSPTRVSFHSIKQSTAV
Measure: log10(IC50) (log10 of the value in nM)

[[record]]
compound = "COCCN(c1c(OC)nn2c(-c3c(OC)cc(C#N)cc3OC)csc12)C1CCCC1"
endpoint_result = 1.72

[[record]]
compound = "COCCCN(CC1CC1)c1c(OC)nn2c(-c3c(OC)cc(COC)cc3OC)csc12"
endpoint_result = 1.76

[[record]]
compound = "CCOc1nn2c(-c3c(OC)cc(COC)cc3OC)csc2c1N(CC1CC1)C1CCOCC1"
endpoint_result = 1.95

[[record]]
compound = "CCOCc1cc(OC)c(-c2csc3c(N(CCCF)C4CCOCC4)c(OC)nn23)c(OC)c1"
endpoint_result = 1.95

[[record]]
compound = "CCCN(c1c(OC)nn2c(-c3c(OC)cc(COC)cc3OC)c(C)sc12)C1CCOCC1"
endpoint_result = 1.97

[[record]]
compound = "CCOCc1cc(OC)c(-c2csc3c(N(CCOC)CC4CC4)c(OC)nn23)c(OC)c1"
endpoint_result = 1.51

[[record]]
compound = "COCc1cc(OC)c(-c2csc3c(N(CCCF)Cc4ccncc4)c(OC)nn23)c(OC)c1"
endpoint_result = 1.79

[[record]]
compound = "CCCN(c1c(OC)nn2c(-c3c(OC)cc(COC)cc3OC)c(CC)sc12)C1CCOCC1"
endpoint_result = 2.06

[[record]]
compound = "CCCN(c1c(OC)nn2c(-c3c(OC)cc(COC)cc3OC)csc12)C1CCCOCC1 (stereo not drawn)"
endpoint_result = 2.11

[[record]]
compound = "CCCN(CCC)c1c(C)nn2c(-c3c(OC)cc(COC)cc3OC)c([S+](C)[O-])sc12 (stereo not drawn)"
endpoint_result = 2.47

[[record]]
compound = "COCCN(CC(C)C)c1c(OC)nn2c(-c3c(OC)cc(COC)cc3OC)csc12"
endpoint_result = 1.28

[[record]]
compound = "COCCCN(c1c(OC)nn2c(-c3c(OC)cc(C4CC4)cc3OC)csc12)C1CCCC1"
endpoint_result = 1.68

[[record]]
compound = "CCCN(CCC)c1c(OC)nn2c(-c3c(OC)cc(COC)cc3OC)csc12"
endpoint_result = 1.41

[[record]]
compound = "CCOCc1cc(OC)c(-c2csc3c(N(CC4CCC4)C4CCOC4)c(OC)nn23)c(OC)c1 (stereo not drawn)"
endpoint_result = 1.51

[[record]]
compound = "CCN(c1c(OC)nn2c(-c3c(OC)cc(COC)cc3OC)csc12)C1CCCC1"
endpoint_result = 1.41

[[record]]
compound = "CCCCN(CCOC)c1c(OC)nn2c(-c3c(OC)cc(COCC)cc3OC)csc12"
endpoint_result = 1.40

[[record]]
compound = "CCOCc1cc(OC)c(-c2csc3c(N(CCCOC)CC4CC4)c(OC)nn23)c(OC)c1"
endpoint_result = 1.54

[[record]]
compound = "COCCN(c1c(OC)nn2c(-c3c(OC)cc(COC)cc3OC)csc12)C1CCCCC1"
endpoint_result = 1.30

[[record]]
compound = "COCc1cc(OC)c(-c2csc3c(N(CC4CCC4)CC4C5COCC54)c(OC)nn23)c(OC)c1 (single isomer, unassigned; diastereomer 1)"
endpoint_result = 1.94

[[record]]
compound = "CCCCN(c1c(OC)nn2c(-c3c(OC)cc(C=O)cc3OC)csc12)C1CCOCC1"
endpoint_result = 2.00

[[record]]
compound = "COCc1cc(OC)c(-c2csc3c(N(CC4CC4)CC4C5COCC54)c(OC)nn23)c(OC)c1 (single isomer, unassigned; diastereomer 1)"
endpoint_result = 1.65

